Biological target: zfPXR (Danio rerio, UniProt A5WYG8)
Sequence (A5WYG8 entry or part of it): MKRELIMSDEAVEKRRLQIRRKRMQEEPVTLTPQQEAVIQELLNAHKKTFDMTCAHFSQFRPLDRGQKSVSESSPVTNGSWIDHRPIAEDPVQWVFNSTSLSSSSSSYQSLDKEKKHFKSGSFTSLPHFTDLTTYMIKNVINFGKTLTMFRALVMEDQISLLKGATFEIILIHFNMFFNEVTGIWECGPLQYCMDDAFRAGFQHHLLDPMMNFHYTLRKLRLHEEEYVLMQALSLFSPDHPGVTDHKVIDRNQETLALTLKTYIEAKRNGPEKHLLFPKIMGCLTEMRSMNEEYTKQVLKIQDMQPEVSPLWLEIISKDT
Assay: HG5LN Gal4-zfPXR luciferase reporter gene assay, agonism
Format: cell-based, zebrafish
Details: HG5LN-zfPXR cells, 16h exposure; n.a. = not active; read-out: zfPXR agonism EC50
quantity: pEC50
Please report pEC50 as the negative decimal logarithm of the molar concentration, giving only the number.

// solved cases for pEC50 follow
pEC50 in this record for O=C1C2(Cl)C3(Cl)C4(Cl)C(Cl)(Cl)C5(Cl)C3(Cl)C1(Cl)C5(Cl)C24Cl (stereo not drawn) [Chlordecone] : 4.12

Entry ClC1=C(Cl)[C@]2(Cl)[C@H]3[C@H](Cl)[C@@H](Cl)C[C@H]3[C@@]1(Cl)C2(Cl)Cl (relative stereo) [Trans-chlordane] — recorded pEC50 = 4.80

Form field pEC50, entry ClC1=C(Cl)[C@]2(Cl)[C@@H]3[C@@H](Cl)[C@H]4O[C@H]4[C@@H]3[C@@]1(Cl)C2(Cl)Cl [Heptachlor exo-epoxide] : 5.85

Reported pEC50 for C#C[C@]1(O)CC[C@H]2[C@@H]3CCC4=CC(=O)CC[C@@H]4[C@H]3C(=C)C[C@@]21CC [Etonogestrel, reference compound] was 5.64

For record C#C[C@]1(O)CC[C@H]2[C@@H]3CCC4=CCCC[C@@H]4[C@H]3C(=C)C[C@@]21CC [Desogestrel, reference compound] the listed pEC50 is 6.89

Next:
get_value(item= C#C[C@]1(O)C=C[C@H]2[C@@H]3CCC4=CC(=O)CC[C@@H]4[C@H]3CC[C@@]21CC [Gestodene, reference compound] , readout=pEC50) returns 6.74

====

Molecular target: hPXR (Homo sapiens)
Experiment: HG5LN Gal4-hPXR luciferase reporter gene assay, agonism
Settings: HG5LN-hPXR; maximal activity at 10 µM, % of maximal induced by 3 µM SR 12813; DMSO 19 ± 6
hPXR agonism Max for assorted compounds
Field format: number, assumed %, no unit text.

# example entries with known answers
The measured hPXR agonism Max associated with CC(C)[C@H](Nc1ccc(C(F)(F)F)cc1Cl)C(=O)OC(C#N)c1cccc(Oc2ccccc2)c1 (some centres unmarked) [Fluvalinate] reads 74

hPXR agonism Max for C#CC(C)(C)NC(=O)c1cc(Cl)cc(Cl)c1 [Propyzamide] is 45

Reported hPXR agonism Max of CCc1cccc(C)c1N(C(=O)CCl)C(C)COC (centres unmarked) [Metolachlor] : 69

Consider the record given below.
get_value(item= COCC(=O)N(c1c(C)cccc1C)C(C)C(=O)OC (centres unmarked) [Metalaxyl] , readout=hPXR agonism Max) returns 40

====

Quick list: pEC50 per entry.
Target: zfPXR (Danio rerio, UniProt A5WYG8)
Assay: cell-based
Field pEC50 (float): negative decimal logarithm of the concentration in molar.

Case C#C[C@]1(O)CC[C@H]2[C@@H]3CCC4=CCCC[C@@H]4[C@H]3C(=C)C[C@@]21CC [Desogestrel, reference compound] , zfPXR (Danio rerio, UniProt A5WYG8), pEC50 recorded as 7.15

Consider the additional molecule presented here.
Case CCC(CC)Nc1c([N+](=O)[O-])cc(C)c(C)c1[N+](=O)[O-] , zfPXR (Danio rerio, UniProt A5WYG8), pEC50 recorded as 6.92

====

Target: hPXR (Homo sapiens, UniProt O75469)
Sequence (O75469 146-433 limits assumed): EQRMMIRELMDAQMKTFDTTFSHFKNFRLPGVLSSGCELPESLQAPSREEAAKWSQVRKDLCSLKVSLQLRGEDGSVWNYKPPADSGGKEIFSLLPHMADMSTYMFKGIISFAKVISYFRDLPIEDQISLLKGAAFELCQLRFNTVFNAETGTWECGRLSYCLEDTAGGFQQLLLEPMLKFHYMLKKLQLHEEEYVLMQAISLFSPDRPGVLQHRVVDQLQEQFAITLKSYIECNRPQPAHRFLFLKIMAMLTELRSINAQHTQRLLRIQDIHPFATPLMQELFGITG
Test: HG5LN Gal4-hPXR luciferase reporter gene assay, agonism
Below, each entry is listed alongside its reported pEC50.
Recall that pEC50 is obtained by taking minus log10 of the concentration measured in molar.

Below, each entry is followed by its recorded pEC50 result.
Measured pEC50 of CC1(C)[C@H](C(=O)O[C@H](C#N)c2cccc(Oc3ccccc3)c2)[C@@H]1/C=C(\Cl)C(F)(F)F (racemic) : 5.77

Per the records, this compound ( COCC(=O)N(c1c(C)cccc1C)C(C)C(=O)OC (centres unmarked) [Metalaxyl] ) has pEC50 equal to 4.51

Kindly note the recorded pEC50 for CCOc1ccc(NC(=O)OC(C)C)cc1OCC , which is 4.72

Fc1ccc([C@]2(Cn3cncn3)O[C@H]2c2ccccc2Cl)cc1 (racemic) has a reported pEC50 of 5.09

Then there is this compound:
// recorded pEC50 for N#CC(CCc1ccc(Cl)cc1)(Cn1cncn1)c1ccccc1 (centres unmarked) : 4.49
